Consider the following molecules; for each one, report its Emax.
Study System: human CB2 receptor (Homo sapiens (Human), UniProt P34972)
Sequence (P34972 whole entry): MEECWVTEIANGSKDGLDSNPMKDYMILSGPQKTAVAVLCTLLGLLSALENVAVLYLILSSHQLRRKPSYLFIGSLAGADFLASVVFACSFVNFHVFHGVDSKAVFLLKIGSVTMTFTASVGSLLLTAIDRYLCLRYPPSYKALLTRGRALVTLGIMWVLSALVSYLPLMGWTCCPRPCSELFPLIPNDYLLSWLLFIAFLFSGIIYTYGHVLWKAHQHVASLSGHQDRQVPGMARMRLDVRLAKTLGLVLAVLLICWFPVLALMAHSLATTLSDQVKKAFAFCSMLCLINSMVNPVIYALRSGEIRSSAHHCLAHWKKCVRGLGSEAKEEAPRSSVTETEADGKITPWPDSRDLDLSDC
Run Description: [35S]GTPγS-binding assay, functional activity at the human CB2 receptor
Format: biochemical
Test Context: read-out: % Activity (relative to CP55,940)
Numbers only, in %.

- O=S(=O)(NCC1CC1)c1ccc(NN2CCCCCC2)cc1C(F)(F)F: 43
- O=S(=O)(NCC1CC1)c1ccc(Nc2ccc(Cl)cc2Cl)cc1C(F)(F)F: 46
- O=S(=O)(NCC1CCOCC1)c1ccc(Nc2ccc(Cl)cc2Cl)cc1C(F)(F)F: 35
- COc1ccc(Nc2ccc(S(=O)(=O)NCC3CC3)c(C(F)(F)F)c2)c(OC)c1: 9.8
- O=S(=O)(NCC1CC1)c1ccc(NC2CCCCCC2)cc1C(F)(F)F: 29

Entry CC(C)(NS(=O)(=O)c1ccc(NC2CC3CCC2C3)cc1C(F)(F)F)C1CC1 (stereo not drawn) : Emax on human CB2 receptor (Homo sapiens (Human), UniProt P34972) = 45
